Listed below: folding stability dG values for each entry.
B1: EHEE_rd3_0053 (parent)
chain: TYTFKVDNKDQAKKAAKWAKKLGLSFQIEKHGDTFKITVQ

Variants of: B1
TEST: folding stability dG (cDNA display proteolysis); higher = more stable
MEASUREMENT SETUP: PBS, room temperature
REPORTED ENDPOINT: folding stability dG (kcal/mol)

Q40A ... 2.46
Q11C ... 3.05
S25T ... 2.45
K20I ... 2.24
N8H ... 1.73
K21S ... 2.43
Q11K ... 2.38
H31L ... 2.59
K17E ... 2.36
T3C ... 2.98
K9V ... 2.57
V6G ... 0.437
H31N ... 2.42
Q11D ... 2.39
K14T ... 1.89
K20H ... 2.01
L22K ... 2.44
Q40D ... 1.98
L22D ... -0.31
K13T ... 2.12
A16K ... 2.41
H31C ... 3.09
K13Y ... 2.32
Y2F ... 2.57
Q11T ... 1.93
D10M ... 2.67
N8S ... 2.56
K21W ... 2.19
T38D ... 0.562
D10Y ... 3.04
Y2Q ... 1.17
V39S ... -0.061
T1A ... 2.38
T3R ... 1.6
A12I ... 1.97
K20Y ... 2.13
F4N ... -0.163
F4T ... 0.349
Q11I ... 1.97
L24M ... 2.11
A15G ... 0.564
Q11M ... 2.36
K36I ... 3.28
G32R ... 1.58
F4I ... 1.79
K36V ... 3.14
D7K ... 2.77
T1F ... 2.42
D10G ... 2.44
Y2A ... 1.23
S25F ... 2.31
Q11G ... 1.97
T1K ... 2.46
H31M ... 2.68
G23W ... 0.761
K13C ... 3.24
K5A ... 2.54
N8T ... 2.78
F35L ... 1.49
D33N ... 2.45
D7S ... 2.66
T34R ... 2.41
T38H ... 1.8
L22N ... 2.32
K17N ... 2.23
K36R ... 2.53
K14V ... 2.08
K17Q ... 2.57
G32P ... 0.72
I28T ... 0.849
I28E ... 0.501
K5G ... 1.89
